Target or system purified human autoBACE-2 (Homo sapiens): recorded Ki listed per item.
Value Kind: Ki (nM)

Input "CC1(C)C(=N)N[C@@]2(CCCc3ccc(NC(=O)c4cnc(C(F)(F)F)cn4)cc32)CS1(=O)=O" . Output Ki: 163

A. CC1(C)C(=N)N[C@@]2(CCOc3ccc(NC(=O)c4cnc(C(F)(F)F)cn4)cc32)CS1(=O)=O
B. CC1(C)C(=N)N[C@@]2(CCOc3ccc(NC(=O)C(F)F)cc32)CS1(=O)=O
C. Cc1nc(C(=O)Nc2ccc3c(c2)[C@]2(CCC3)CS(=O)(=O)C(C)(C)C(=N)N2)no1
D. CC1(C)C(=N)N[C@@]2(CCCc3ccc(NC(=O)c4ccc(C(F)(F)F)cn4)cc32)CS1(=O)=O
Data request: Order the entries by their reported Ki, beginning at the minimum. Form field (ranking): labels in requested order.
Data returned: C, D, B, A

I. CC1(C)C(=N)N[C@@]2(COCc3ccc(NC(=O)c4ccc(Cl)cn4)cc32)CS1(=O)=O
II. C#CCOc1cnc(C(=O)Nc2ccc3c(c2)[C@]2(CCO3)CS(=O)(=O)C(C)(C)C(=N)N2)cn1
Data request: Which is greater in Ki, the first item I or the second item II ? Indicate your choice by writing its label.
Data returned: II
(II: 14 nM, I: 7 nM)

* * *

Entries below carry reported pKi on purified human autoBACE-2 (Homo sapiens).
Sequence (Q9Y5Z0 63-473 limits assumed): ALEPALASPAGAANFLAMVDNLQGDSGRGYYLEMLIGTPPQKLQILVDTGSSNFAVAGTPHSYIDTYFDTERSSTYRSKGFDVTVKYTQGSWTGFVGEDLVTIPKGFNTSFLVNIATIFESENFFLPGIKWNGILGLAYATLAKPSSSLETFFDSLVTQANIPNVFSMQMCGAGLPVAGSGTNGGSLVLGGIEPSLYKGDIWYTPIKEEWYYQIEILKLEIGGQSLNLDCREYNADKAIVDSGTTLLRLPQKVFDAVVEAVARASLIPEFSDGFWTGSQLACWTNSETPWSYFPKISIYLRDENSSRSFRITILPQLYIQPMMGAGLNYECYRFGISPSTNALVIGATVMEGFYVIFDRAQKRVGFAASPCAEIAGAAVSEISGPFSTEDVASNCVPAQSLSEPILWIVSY
pKi: −log10 of the molar value.
Value Kind: pKi

Reference set, count: 2
Reading of pKi for "CC1(C)C(=N)N[C@@]2(CCCc3ccc(NC(=O)c4ccc(OC(F)F)cn4)cc32)CS1(=O)=O" with purified human autoBACE-2 (Homo sapiens): 7.66

So the reported pKi for "CC1(C)C(=N)N[C@@]2(CCCc3ccc(NC(=O)c4ccc(OCF)cn4)cc32)CS1(=O)=O" , on purified human autoBACE-2 (Homo sapiens), turned out to be 8.15

P. C#CCOc1cnc(C(=O)Nc2ccc3c(c2)[C@]2(CCC3)CS(=O)(=O)C(C)(C)C(=N)N2)cn1
Q. CC1(C)C(=N)N[C@@]2(CCCc3ccc(NC(=O)c4cc5ccccn5n4)cc32)CS1(=O)=O
R. CC1(C)C(=N)N[C@@]2(CCOc3ccc(NC(=O)c4ccc(F)cn4)cc32)CS1(=O)=O
S. CC1(C)C(=N)N[C@@]2(CCOc3ccc(NC(=O)c4ccc(C#N)cn4)cc32)CS1(=O)=O
T. Cc1cc(C#N)cnc1C(=O)Nc1ccc2c(c1)[C@]1(CCC2)CS(=O)(=O)C(C)(C)C(=N)N1
Data request: Reorder: pKi, max to min. Please respond by ranking the labels in the order requested.
Data returned: T, R, S, P, Q
(T: 8.52, R: 8.30, S: 8.05, P: 7.70, Q: 7.13)

* * *

Heads up, these compounds all have Ki values measured for soluble human BACE1 catalytic domain (Homo sapiens, UniProt P56817).
Value Kind: Ki (nM)

The examples below pair each entry with its known result.
Please fill in: Ki reported for CC1(C)C(=N)N[C@@]2(CCCc3ccc(NC(=O)c4cnc(C(F)(F)F)cn4)cc32)CS1(=O)=O [Example G-12] = 57

Reported Ki ( COc1cnc(C(=O)Nc2ccc3c(c2)[C@]2(CCO3)CS(=O)(=O)C(C)(C)C(=N)N2)c(C)n1 [Example C-21] ) = 40

Record summary for CC1(C)C(=N)N[C@@]2(COCc3ccc(NC(=O)c4ccc(C(F)(F)F)cn4)cc32)CS1(=O)=O [Example E-6] : reported Ki = 41

Lab book: Ki of CC1(C)C(=N)N[C@@]2(CCOc3ccc(NC(=O)c4ccc(C(F)(F)F)cn4)cc32)CS1(=O)=O [Example C-6] noted as 10

Form field Ki, entry COc1cnc(C(=O)Nc2ccc3c(c2)[C@]2(CCC3)CS(=O)(=O)C(C)(C)C(=N)N2)c(C)n1 [Example G-9] : 64

1. COc1cnc(C(=O)Nc2ccc3c(c2)[C@]2(COC3)CS(=O)(=O)C(C)(C)C(=N)N2)c(C)n1 [Example E-20]
2. CC1(C)C(=N)N[C@@]2(CCOc3ccc(NC(=O)c4ccc(F)cn4)cc32)CS1(=O)=O [Example C-9]
Data request: Exercise: compare 1 and 2 ; which one has the greater Ki? API: response body contains the label of the selected item.
Data returned: 1
(1: 218 nM, 2: 33 nM)

1. CC1(C)C(=N)N[C@@]2(COCc3ccc(NC(=O)c4cnc(C(F)(F)F)cn4)cc32)CS1(=O)=O [Example E-21]
2. CC1(C)C(=N)N[C@@]2(CCCc3ccc(NC(=O)c4cnc(OCCF)cn4)cc32)CS1(=O)=O [Example G-17]
Data request: Between the two listed entries 1 and 2 , which has its Ki at the higher number? # reply format: chosen label
Data returned: 1
(1: 231 nM, 2: 140 nM)
